Taken from the supplement of paper PMC10126150.

- Tested on: ATP;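 also: ATP exposure 15 min at 22 °C before imaging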
- assay_protocol: switch fluorescence ratio, 500 uM ATP over buffer (Cy3 cluster intensity, sum of 5 cycles each) (fold (ratio)); higher = stronger signal-on switching upon ATP binding; sequences stand for … in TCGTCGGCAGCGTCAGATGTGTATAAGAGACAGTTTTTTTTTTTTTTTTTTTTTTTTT…TC
- test_conditions: aptamer strand: ATP DNA aptamer (quencher-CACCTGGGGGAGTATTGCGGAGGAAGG + anchor), 100 nM annealed; ATP concentration: 500 uM
Label NOT MET if switch fluorescence ratio falls below 1; label MET in every other case.

> print(dat)
   residue.codes  assigned.label
1     ATAATGGGGT             MET
2     TGGTGGTTGC         NOT MET
3     ATTTGAGCTG         NOT MET
4     GTAAAAGTCG             MET
5     TGGTCTATGC             MET

---

- Test system: ATP;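 also: ATP exposure 15 min at 22 °C before imaging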
- assay_protocol: switch fluorescence ratio, 500 uM ATP over buffer (Cy3 cluster intensity, sum of 5 cycles each) (fold (ratio)); higher = stronger signal-on switching upon ATP binding; sequences stand for … in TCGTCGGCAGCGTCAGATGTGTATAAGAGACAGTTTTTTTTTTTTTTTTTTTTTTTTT…TC
- test_conditions: aptamer strand: ATP DNA aptamer (quencher-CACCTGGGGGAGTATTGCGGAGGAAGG + anchor), 100 nM annealed; ATP concentration: 500 uM
Label not met if switch fluorescence ratio falls below 1; label met in every other case.

> print(dat)
   residue.codes  system.under.test  assigned.label
1     TTGACGAAGG                ATP         not met
2     GTTTTCTTCA                ATP             met
3     AGTTAACGGT                ATP             met
4     CGTGACGGTA                ATP             met
5     GAACGAGGGT                ATP         not met
6     GGGAGTTCGG                ATP         not met

---

- Tested on: ATP;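 also: ATP exposure 15 min at 22 °C before imaging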
- assay_protocol: switch fluorescence ratio, 500 uM ATP over buffer (Cy3 cluster intensity, sum of 5 cycles each) (fold (ratio)); higher = stronger signal-on switching upon ATP binding; sequences stand for … in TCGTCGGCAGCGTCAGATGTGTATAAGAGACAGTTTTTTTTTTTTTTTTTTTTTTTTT…TC
- test_conditions: aptamer strand: ATP DNA aptamer (quencher-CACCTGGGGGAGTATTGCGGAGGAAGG + anchor), 100 nM annealed; ATP concentration: 500 uM
The reader will find reported switch fluorescence ratio values listed item by item below.
readout_name: switch fluorescence ratio

> print(dat)
    residue.codes  recorded.number
 1     CAGGGTGAGT             1.01
 2     TTGTGGTTGG            0.994
 3       TGGGGGGG                1
 4     GTTGATATAG                1
 5     CTTTCGTGGA                1
 6     TAAGGACGAG             1.02
 7     TTTTAAAAGG             0.99
 8     TGTTTCGGAA             1.02
 9     ATGGTCGTCG            0.994
10     TGTAAATGGG            0.984
11     CGAATGTGGG             1.01
12     CTGGTGAGGG            0.993
13     GGATCGTGGG            0.995
14     AATATGGGTT             0.98
15     TTAAGACTTG                1
16     CGCCTAGTCG             1.02
17     TAAGGGGGCG                1
18     AGGGCAGGGT            0.975
19     TGGTATGCGC            0.997
20     AGTCGTTGAG             1.02
21     TGCCGTGGGT            0.987
22     GAATTAAATT             1.01
23     ATGAGTTACT             1.01
24     GTGGGGGGAA             0.98
25     CATTATTAAA            0.976
26     GTCACGGGCG             1.01
27     TCCCAAAATG             1.01
28     TACGGTGGGT            0.982
29     TTGGTGGTTC             0.99
30     AAGGTGTCGG             0.99
31     TAGGGGGTAA            0.997
32     CAAGAAGAGT             1.01
33      CTATAAGGG            0.985
34     GAATCGTGAG            0.999
35     AATATTTTTC             1.01
36     TAGGTGGGCA            0.987
37     TTATGAAATG                1
38     CGGGAGCTGT             1.01
39     TAAGATCTGA             1.02
40     GTCGGGTTTG            0.991
41     TTTAATGGAG             1.02
42     CGGGCCGGGG             1.02
43     GTGTGACCGT             1.02
44     TTAAAGGGCG            0.976
45     TGGTTAAAAG            0.977
46     CATCACATGT                1
47     TCATTTTTTT            0.997
48     TACGTTGAGC             1.02
49     TTTGTATAAC             1.01
50     CTTGGGCCCT            0.979
51     GGGGTAGATA             1.01

---

- System: ATP;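 also: ATP exposure 15 min at 22 °C before imaging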
- assay_protocol: switch fluorescence ratio, 500 uM ATP over buffer (Cy3 cluster intensity, sum of 5 cycles each) (fold (ratio)); higher = stronger signal-on switching upon ATP binding; sequences stand for … in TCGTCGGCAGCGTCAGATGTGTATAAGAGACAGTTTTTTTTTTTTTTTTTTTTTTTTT…TC
- test_conditions: aptamer strand: ATP DNA aptamer (quencher-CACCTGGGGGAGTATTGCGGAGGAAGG + anchor), 100 nM annealed; ATP concentration: 500 uM
readout_name: switch fluorescence ratio

> print(dat)
    residue.codes  system.under.test  recorded.number
 1     GGGTGGGATG                ATP            0.984
 2     TATAGGCCTC                ATP                1
 3     GGGTAGCGGG                ATP             1.01
 4     GACTTTGGGG                ATP                1
 5     CCAGGGGAAG                ATP            0.996
 6     GGGATGAGTT                ATP             0.98
 7     AACAGACCTT                ATP             1.13
 8     CGATTGGGTA                ATP            0.968
 9     CCAGCGGTTG                ATP             1.03
10     GGCTTCTTGT                ATP             1.01
11     GATCGGGGTT                ATP            0.994
12     GCGTTATCTT                ATP            0.996
13     CTTTGGCCGG                ATP             1.01
14     GCTTTCATTG                ATP             1.01
15     TTGCAAGTCA                ATP             1.05
16     ACTTGGTGTG                ATP             1.01
17     GTGTGACACG                ATP             1.04
18     GGGCTATAGA                ATP            0.998
19     GTGTCATAGC                ATP            0.975
20     GGTTCTTTTT                ATP             1.02
21     AAGGCTTGGG                ATP            0.992
22     TGCGAGGGTG                ATP             1.02
23     TTGTGGGTTG                ATP             1.89
24     GAATATTTTT                ATP             1.02
